assay-remarks: yeast display, Sf9 membrane polyspecificity reagent, FACS + sequencing; frameworks hold sequencing errors
observed-property: polyreactivity (PSR sort gate)

INSERT INTO results (residue_string, obs_value) VALUES
  ('QVQLVESGGGLVQAGGSLRLSCAASGYIIGRYVMGWYRQAPGKERELVAAITASGGSTYYADSVKGRFTISRDNAKNTVYLQMNSLKPEDTAVYYCAAPTYGRFLRNDYWGQGTQVTVSS', 'high polyreactivity'),
  ('QVQLVESGGGLVQAGGSLRLSCAASGSTFWNAMGWYRPGPGKERELVAAIRLSGGSTYYADSVKGRFTISRDNAKNTVYLQMNSLKPEDTAVYYCNADVTFGYWEYDYWGQGTQVTVSS', 'low polyreactivity'),
  ('QVQLVESGGGLVQAGGSLRLSCAASGSIFHPYAMGWYRQAPGKEREFVAAITFRGSTYFADSVKGRFTISRDNAKITVYLQMNSLKPEDTAVYYCAARYHIFRRGSRNYDYWGQGTQVTVSS', 'high polyreactivity'),
  ('QVQLVESGGGLVQAGGSHRLSCAASGRIYGDYAMGWYRQAPGKERELVAAINSSGTSTIYADSVKGRFTISRDNAKNTVYLQLNCLKPEDTAVYYCADLFTFKYDYWGQGTQVTVSS', 'low polyreactivity'),
  ('QVQLVESGGGLVQAGGSLRLSCAASGGIFPAYAMGWYRQAPGKERELVASISANGGRTYYADSVKGRFTISRDNAKNTVYLQMNSLKPEDTAVYYCNASSRSGSWRFYYWGQGTQVTVSS', 'high polyreactivity'),
  ('QVQLGESRGGLVQAVGSLSLSCAAYGFTYDKNAMGWYIQAPGNESALDAAINIRSTYYAESVKGRFTISRDNAKNTVYLQMNSMKPEDTAVYYCANEVPSGYWFNYYYWGQGTQVTVSS', 'low polyreactivity'),
  ('QVQLVESGGGLVQAGGSLRLSCAASGSTFVYAMGWYRQAPGKERELVAAITTGDSTYYADSVKGRFTISRDNAKNTVYLQMNSLKPEDTAVYYCAAQWYTRYGEYGYWGQGTQVTVSS', 'low polyreactivity'),
  ('QVQLVESGGGLVQAGGRLRLSCAASGRIFYWNVMGWYRPAPGKERELVAAISSSGASTSYADSVKGRFTISRDNAKNTVYLQMNSLKPEDTAVYYCAARTRRNYRQYNYWGQGTQVTVSS', 'high polyreactivity'),
  ('QVQLVESGGGLVQEGGSLRLSCAASGNMLGTYAMGWYILAPGIEREFVAAISSSVGSTYYADSVKGRFTISRDNAKNSVYLQMNILKPEDTAVYYCAARKYQIYEKWGYLYDYWGQGTQVTVSS', 'low polyreactivity');

The record that follows has no polyreactivity (PSR sort gate) shown yet.
// sample "QDQLVESGGGLVQAGGSLRLSCAASGRNFYRNAMGWYRPAPGKEWEVVAAITQSSGSTYYADSVKGRCTISRDNAKHTVYLQMNSLKPEDTAVYYCAALVRKYGVDYWGQGTQVTVSS" , its polyreactivity (PSR sort gate) was high polyreactivity
